testSystem: T1, CD137 protein (His-tagged, Sino Biological Inc. 10041-H08H) (human, UniProt Q07011 24-186)
T1 construct: bought protein coated on ELISA plates; also called 4-1BB; TNFRSF9; not shown: His tag
procedureSummary: ELISA, coated His-tagged CD137; further: test concentration or dose not given here
Examples of binders with documented ELISA [abs. corr.] follow.
Provide only the numeric value, understood in abs. corr..

Field: example entries. Status: answers known.
>  <binder>
P018.S.14.A.H01 (antibody, V domains shown, V regions on human Ig constant parts; also called AB137_12) VH: QSVEESGGRLVTPGTPLTLTCTVSGFSLSDYYMTWVRQAPGKGLEYIGIMSGSGSTYYASWAKGRFTISKTSSTTLELKITSPTTEDTAIYFCARDGDYAGWGYATGAFDPWGPGTLVTVSS VL: AAVLTQTPSPVSAAVGGTVTISCQASQSVVGNSLLSWFQKKPGQPPKLLIYSASSLASGVPSRFKGSGSGTQFTLTISDLESDDAATYYCTGRYNSDTDTFVFGGGTEVVVK

>  <unitsOfMeasure>
abs. corr.

>  <ELISA [abs. corr.]>
2.97

$$$$
>  <binder>
P018.S.13.A.A05 (antibody, V domains shown, V regions on human Ig constant parts; also called AB137_4) VH: QSLEESGGRLVTPGTPLTLTCTASGFSLSRYDMSWVRQAPGKGLEYIGVISSSGGTNYANWAKGRFTISKTSTTVDLKITSPTTEDTATYFCAREGDYWDFNLWGPGTLVTVSS VL: AQVLTQTPSSVSAAVGGTVTINCQASQSISNLLAWYQQKPGQPPKLLIYGASTLASGVPSRFSGSGSGTEFTLTISDLESDDAATYYCAGGFPGLDTVAAFGGGTEAVVT

>  <unitsOfMeasure>
abs. corr.

>  <ELISA [abs. corr.]>
0.687

$$$$

Now take the following binder into account.
What the record says about P018.S.13.A.A06 (antibody, V domains shown, V regions on human Ig constant parts; also called AB137_5) VH: QSVEESGGRLVTPGTPLTLTCTASGFTISDFHVTWVRQAPGKGLEWIGTIITSASTTAYATWARGRFTISKSSTTVNLKIVSPTTEDTATYFCARSTYTDTSGYYFDFWGQGTLVTVSS VL: AQVLTQTASPVSAAVGGTVIINCQSSQSIYNGNRLSWYQQKPGQPPKLLIYSASTLASGVSSRFKGSGSGTQFTLAISDVQSDDAATYYCLGSYDCDSADCFAFGGGTEVVVE : ELISA [abs. corr.] is 3.39
